System under test: GLP-1R (Homo sapiens, UniProt P43220)
Sequence (P43220 24-463): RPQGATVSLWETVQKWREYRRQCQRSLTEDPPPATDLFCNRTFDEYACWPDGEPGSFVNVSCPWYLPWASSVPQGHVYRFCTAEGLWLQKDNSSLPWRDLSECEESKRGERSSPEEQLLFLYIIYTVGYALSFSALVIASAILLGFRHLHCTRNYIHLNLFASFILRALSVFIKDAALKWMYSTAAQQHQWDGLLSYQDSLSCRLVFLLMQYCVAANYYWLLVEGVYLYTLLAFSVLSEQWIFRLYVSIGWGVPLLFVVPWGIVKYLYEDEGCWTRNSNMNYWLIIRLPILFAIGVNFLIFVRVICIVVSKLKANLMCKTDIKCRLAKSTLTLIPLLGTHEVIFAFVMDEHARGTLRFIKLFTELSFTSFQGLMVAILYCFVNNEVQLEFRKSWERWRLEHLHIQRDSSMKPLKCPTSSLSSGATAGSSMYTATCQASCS
Procedure details: GLP-1R activation cAMP assay (Assay 1 or Assay 2)
Assay context: cAMP increase in CHO cells stably expressing GLP-1R; compounds run on one of the two cAMP assays
pEC50: −log10 of the molar value.
If the reported pEC50 equals or exceeds 9, assign True. If not, assign False.

INSERT INTO measurements (chemical_smiles, label_class) VALUES
  ('COc1nnc(COc2cccc(-c3cc(F)c(Cc4nc5c(F)cc(C(=O)O)cc5n4CC4(CF)CC4)cc3F)n2)s1', 'True'),
  ('Cc1ncc(C#Cc2ccc(COc3cccc(-c4cc(F)c(Cc5nc6ccc(C(=O)O)cc6n5C[C@@H]5CCO5)cc4F)n3)c(F)c2)o1', 'True'),
  ('O=C(O)c1ccc2nc(Cc3cc(F)c(-c4cccc(OCc5ccn(CC(F)F)n5)n4)cc3F)n(C[C@@H]3CCO3)c2c1', 'False'),
  ('COCCn1c(Cc2cc(F)c(-c3cccc(OCc4ccc(C#CC5CNC5)cc4F)n3)cc2F)nc2ccc(C(=O)O)cc21', 'False');

Now examine the next entry.
Prompt line: State whether the measured pEC50 reaches 9, counting equality as reaching it, for Cn1cc(C#Cc2ccc(COc3cccc(-c4cc(F)c(Cc5nc6ccc(C(=O)O)cc6n5C[C@@H]5CCO5)cc4F)n3)c(F)c2)nn1
Response line: True

* * *

System under test: GLP-1R (Homo sapiens, UniProt P43220)
Procedure details: GLP-1R activation cAMP assay (Assay 1 or Assay 2)
Assay context: cAMP increase in CHO cells stably expressing GLP-1R; compounds run on one of the two cAMP assays
Lab note: cut-off is 0.2 nM. Strictly less in EC50 is 1.0. Exactly 0.2 nM or more is 0.0.

INSERT INTO measurements (compound, label_class) VALUES
  ('CCOc1nnc(COc2nc(-c3cc(F)c(Cc4nc5ccc(C(=O)O)cc5n4[C@@H]4COCC4(C)C)c(F)c3F)ccc2F)s1', 1.0),
  ('COCCn1c(Cc2cc(F)c(-c3cccc(OCc4ccc(-n5cnc(C6CC6)n5)nc4)n3)cc2F)nc2ccc(C(=O)O)cc21', 0.0),
  ('O=C(O)c1ccc2nc(Cc3cc(F)c(-c4cccc(OCc5ncc(-c6cnn(CC7CC7)c6)s5)n4)cc3F)n(C[C@@H]3CCO3)c2c1', 0.0),
  ('N#CC1(NC(=O)c2cc(Cl)c(COc3cccc(-c4cc(F)c(Cc5nc6ccc(C(=O)O)cc6n5C[C@@H]5CCO5)cc4F)n3)cn2)CC1', 1.0),
  ('COc1nc(C#Cc2cnn(C)c2)ccc1COc1cccc(-c2cc(F)c(Cc3nc4ccc(C(=O)O)cc4n3C[C@@H]3CCO3)cc2F)n1', 1.0),
  ('O=C(O)c1ccc2nc(Cc3cc(F)c(-c4cccc(OCc5cnc(Cl)s5)n4)cc3F)n(C[C@@H]3CCO3)c2c1', 0.0),
  ('Cc1nc(C#Cc2cnc(COc3cccc(-c4cc(F)c(Cc5nc6ccc(C(=O)O)cc6n5C[C@@H]5CCO5)cc4F)n3)c(F)c2)cs1', 0.0),
  ('CCOc1nnc(COc2cccc(-c3cc(F)c(Cc4nc5c(F)cc(C(=O)O)cc5n4C[C@@H]4CCO4)cc3F)n2)s1', 1.0),
  ('O=C(O)c1ccc2nc(Cc3cc(F)c(-c4cccc(OCc5csc(Cl)n5)n4)cc3F)n(C[C@@H]3CCO3)c2c1', 0.0),
  ('O=C(O)c1ccc2nc(Cc3cc(F)c(-c4cccc(OCc5cn6cccnc6n5)n4)cc3F)n(C[C@@H]3CCO3)c2c1', 0.0);

Prompt line: Threshold test, EC50 < 0.2 nM: CC1(COc2nnc(COc3cccc(-c4cc(F)c(Cc5nc6ccc(C(=O)O)cc6n5C[C@@H]5CCO5)cc4F)n3)s2)CC1
Response line: 0.0

Prompt line: Item CC1(C)COCC1n1c(Cc2cc(F)c(-c3cccc(OCc4ncc(C(F)F)s4)n3)cc2F)nc2c(F)cc(C(=O)O)cc21 (stereo not shown) : EC50 beneath 0.2 nM, strictly?
Response line: 0.0

Prompt line: Does this compound meet the criterion EC50 < 0.2 nM? Cc1cc(Cc2nc3ccc(C(=O)O)cc3n2[C@@H]2COCC2(C)C)c(Cl)cc1-c1ccc(F)c(OCc2ncc(C(F)(F)F)s2)n1
Response line: 0.0

Hello, the source for this data is patent US20250312352A1, in case you need it.
